# Assayed System: human IL-21R expressed on cells (human, UniProt Q9HBE5 20-538)
# Sequence (Q9HBE5 20-538 limits assumed): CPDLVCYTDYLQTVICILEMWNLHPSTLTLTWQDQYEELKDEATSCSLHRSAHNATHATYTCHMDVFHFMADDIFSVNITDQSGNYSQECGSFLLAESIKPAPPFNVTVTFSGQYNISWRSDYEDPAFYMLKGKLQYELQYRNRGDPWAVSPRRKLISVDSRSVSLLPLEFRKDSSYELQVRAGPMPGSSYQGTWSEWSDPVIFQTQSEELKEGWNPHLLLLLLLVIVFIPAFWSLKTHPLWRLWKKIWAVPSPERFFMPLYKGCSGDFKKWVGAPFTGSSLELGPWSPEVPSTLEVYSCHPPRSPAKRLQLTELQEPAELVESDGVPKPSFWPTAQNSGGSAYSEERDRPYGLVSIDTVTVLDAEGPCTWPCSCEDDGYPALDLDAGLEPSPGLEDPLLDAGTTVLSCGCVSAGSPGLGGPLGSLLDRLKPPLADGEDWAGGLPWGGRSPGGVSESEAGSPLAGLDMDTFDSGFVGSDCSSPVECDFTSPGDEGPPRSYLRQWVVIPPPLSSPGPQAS
# Procedure Summary: cell-based or functional assay
Property: Human IL-21R-BaF3 Neutralization IC50 (nM)

[
  {
    "Binder": "AbR (antibody, human IgG1, V domains shown, CDR3 graft, residue limits derived as for m29; also called VH3/VL18; VH3DM/VL18) VH: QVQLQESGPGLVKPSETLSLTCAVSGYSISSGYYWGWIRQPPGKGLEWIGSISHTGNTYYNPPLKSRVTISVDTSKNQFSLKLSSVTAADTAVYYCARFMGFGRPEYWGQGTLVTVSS VL: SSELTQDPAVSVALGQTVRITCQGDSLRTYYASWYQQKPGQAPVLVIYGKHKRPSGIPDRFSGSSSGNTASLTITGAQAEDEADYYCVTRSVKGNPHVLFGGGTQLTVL",
    "Test Result": 0.56
  },
  {
    "Binder": "AbT (antibody, human IgG1, V domains shown, CDR3 graft, residue limits derived as for m29; also called VHP/VL9; VHPTM/VL9) VH: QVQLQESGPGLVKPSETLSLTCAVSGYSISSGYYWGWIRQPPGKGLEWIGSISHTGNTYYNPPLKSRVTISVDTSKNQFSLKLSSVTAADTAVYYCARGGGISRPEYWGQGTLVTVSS VL: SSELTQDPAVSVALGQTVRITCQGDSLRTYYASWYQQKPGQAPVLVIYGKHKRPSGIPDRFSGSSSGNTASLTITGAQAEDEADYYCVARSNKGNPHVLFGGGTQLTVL",
    "Test Result": 0.3
  },
  {
    "Binder": "AbS (antibody, V domains shown, CDR3 graft, residue limits derived as for m29; also called VHP/VL6; VHPTM/VL6) VH: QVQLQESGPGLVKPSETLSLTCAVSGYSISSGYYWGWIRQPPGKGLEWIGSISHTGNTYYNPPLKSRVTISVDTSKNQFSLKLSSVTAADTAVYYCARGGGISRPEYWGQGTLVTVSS VL: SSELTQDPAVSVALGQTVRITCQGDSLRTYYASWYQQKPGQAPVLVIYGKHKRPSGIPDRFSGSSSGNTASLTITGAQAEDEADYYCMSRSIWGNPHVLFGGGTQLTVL",
    "Test Result": 0.68
  }
]
